- tested_system: PTP1B (Homo sapiens)
- Construct: purchased ENZO (Farmingdale, NY, USA)
- Sequence (P18031 1-435): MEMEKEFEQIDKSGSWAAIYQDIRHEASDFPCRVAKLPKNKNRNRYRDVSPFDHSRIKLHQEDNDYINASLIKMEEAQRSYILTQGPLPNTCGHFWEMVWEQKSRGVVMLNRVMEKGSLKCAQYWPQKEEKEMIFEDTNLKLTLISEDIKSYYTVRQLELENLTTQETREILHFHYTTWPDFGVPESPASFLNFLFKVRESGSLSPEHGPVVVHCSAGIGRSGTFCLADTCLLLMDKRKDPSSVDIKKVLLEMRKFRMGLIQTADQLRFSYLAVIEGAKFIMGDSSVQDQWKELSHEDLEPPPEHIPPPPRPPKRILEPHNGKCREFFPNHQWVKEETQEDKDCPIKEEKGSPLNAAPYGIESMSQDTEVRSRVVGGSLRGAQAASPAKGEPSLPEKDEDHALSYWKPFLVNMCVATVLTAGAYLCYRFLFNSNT
- assay_summary: PTP1B enzyme kinetics (Lineweaver–Burk and Dixon plots)
- Type: biochemical
- protocol_conditions: Lineweaver–Burk plots; substrate pNPP
measured_parameter: PTP1B Inhibition Mode

molecule="CC(C)=CCc1c(O)ccc(C23Oc4cc(O)ccc4C4CC(C)=CC(c5c(O)cc(-c6cc7ccc(O)cc7o6)cc5O2)C43)c1O (stereo not shown) [Mulberrofuran F (7), mulberrofuran F]" measured_parameter="PTP1B Inhibition Mode" value_measured=Mixed
molecule="Oc1cc(O)cc(-c2cc3cc4c(cc3o2)OC(c2cc(O)cc(O)c2)C(c2ccc(O)cc2O)O4)c1 (stereo not shown) [Austrafuran C (6), austrafuran C]" measured_parameter="PTP1B Inhibition Mode" value_measured=Mixed
molecule="Oc1cc(O)cc(-c2cc3c4c(c(O)cc3o2)OC(c2ccc(O)cc2O)C4c2cc(O)cc(O)c2)c1 (stereo not shown) [Macrourin B (4), macrourin B]" measured_parameter="PTP1B Inhibition Mode" value_measured=Mixed

---

- tested_system: human recombinant aldose reductase (HRAR) (Homo sapiens)
- Construct: purchased Wako Chemicals (Osaka, Japan)
- assay_summary: HRAR inhibitory activity
- Format: biochemical
measured_parameter: IC50 (µM)

cpd_smiles=Oc1cc(O)cc(/C=C/c2ccc(O)cc2O)c1 measured_parameter=IC50 readout_units=µM value_measured=265

---

- tested_system: α-glucosidase
- assay_summary: α-Glucosidase enzyme kinetics (Lineweaver–Burk and Dixon plots)
- protocol_conditions: Dixon plots; substrate pNPG; read-out: α-Glucosidase Inhibition Constant (Ki)
Measured Ki of individual entries
measured_parameter: Ki (nM)

molecule="CC(C)=CCc1c(O)ccc(C23Oc4cc(O)ccc4C4CC(C)=CC(c5c(O)cc(-c6cc7ccc(O)cc7o6)cc5O2)C43)c1O (stereo not shown)" value_measured=1840
molecule=CC(C)=CCc1c(O)ccc(C(=O)[C@H]2[C@@H](c3c(O)cc(-c4cc5ccc(O)cc5o4)cc3O)C=C(C)C[C@@H]2c2ccc(O)cc2O)c1O value_measured=1710
molecule="Oc1cc(O)cc(-c2cc3cc4c(cc3o2)OC(c2cc(O)cc(O)c2)C(c2ccc(O)cc2O)O4)c1 (stereo not shown)" value_measured=750
molecule="Oc1cc(O)cc(-c2cc3c4c(c(O)cc3o2)OC(c2ccc(O)cc2O)C4c2cc(O)cc(O)c2)c1 (stereo not shown)" value_measured=190

---

- tested_system: α-glucosidase
- assay_summary: α-Glucosidase inhibitory activity
- protocol_conditions: isolated compounds; mean ± SD, triplicate
measured_parameter: IC50 (µM)

compound="CC(C)=CCc1c(O)ccc(C23Oc4cc(O)ccc4C4CC(C)=CC(c5c(O)cc(-c6cc7ccc(O)cc7o6)cc5O2)C43)c1O (stereo not drawn) [Mulberrofuran F (7), mulberrofuran F]" value_measured=1.22
compound="Oc1cc(O)cc(/C=C/c2ccc(O)cc2O)c1 [Oxyresveratrol (3), oxyresveratrol]" value_measured=2.58
compound="Oc1cc(O)cc(-c2cc3cc4c(cc3o2)OC(c2cc(O)cc(O)c2)C(c2ccc(O)cc2O)O4)c1 (stereo not drawn) [Austrafuran C (6), austrafuran C]" value_measured=1.01
compound="CC(C)=CCc1c(O)ccc(C(=O)[C@H]2[C@@H](c3c(O)cc(-c4cc5ccc(O)cc5o4)cc3O)C=C(C)C[C@@H]2c2ccc(O)cc2O)c1O [Chalcomoracin (8), chalcomoracin]" value_measured=0.98
compound="Oc1cc(O)cc(-c2cc3c4c(c(O)cc3o2)OC(c2ccc(O)cc2O)C4c2cc(O)cc(O)c2)c1 (stereo not drawn) [Macrourin B (4), macrourin B]" value_measured=0.44
compound="Oc1cc(O)cc(-c2cc3ccc(O)cc3o2)c1 [Moracin M (5), moracin M]" value_measured=6.11

---

- tested_system: human recombinant aldose reductase (HRAR) (Homo sapiens)
- Construct: purchased Wako Chemicals (Osaka, Japan)
- assay_summary: HRAR inhibitory activity
- Type: biochemical
- protocol_conditions: one result of a single experiment; read-out: HRAR IC50
measured_parameter: IC50

compound=CC(C)=CCc1c(O)ccc(C(=O)[C@H]2[C@@H](c3c(O)cc(-c4cc5ccc(O)cc5o4)cc3O)C=C(C)C[C@@H]2c2ccc(O)cc2O)c1O value_measured="265 µM"
compound="Oc1cc(O)cc(-c2cc3cc4c(cc3o2)OC(c2cc(O)cc(O)c2)C(c2ccc(O)cc2O)O4)c1 (centres unmarked)" value_measured="26.8 µM"
compound=Oc1cc(O)cc(-c2cc3ccc(O)cc3o2)c1 value_measured="238 µM"
compound="CC(C)=CCc1c(O)ccc(C23Oc4cc(O)ccc4C4CC(C)=CC(c5c(O)cc(-c6cc7ccc(O)cc7o6)cc5O2)C43)c1O (centres unmarked)" value_measured="337 µM"
compound="Oc1cc(O)cc(-c2cc3c4c(c(O)cc3o2)OC(c2ccc(O)cc2O)C4c2cc(O)cc(O)c2)c1 (centres unmarked)" value_measured="< 4 µM"

---

Measured IC50 of individual entries
- tested_system: PTP1B (Homo sapiens, UniProt P18031)
- Construct: purchased ENZO (Farmingdale, NY, USA)
- assay_summary: PTP1B inhibitory activity
- Type: biochemical
- protocol_conditions: isolated compounds; mean ± SD, triplicate; read-out: PTP1B IC50
measured_parameter: IC50 (nM)

compound="Oc1cc(O)cc(-c2cc3c4c(c(O)cc3o2)OC(c2ccc(O)cc2O)C4c2cc(O)cc(O)c2)c1 (centres unmarked)" measured_parameter=IC50 readout_units=nM value_measured=2500
compound="CC(C)=CCc1c(O)ccc(C23Oc4cc(O)ccc4C4CC(C)=CC(c5c(O)cc(-c6cc7ccc(O)cc7o6)cc5O2)C43)c1O (centres unmarked)" measured_parameter=IC50 readout_units=nM value_measured=10500
compound=CC(C)=CCc1c(O)ccc(C(=O)[C@H]2[C@@H](c3c(O)cc(-c4cc5ccc(O)cc5o4)cc3O)C=C(C)C[C@@H]2c2ccc(O)cc2O)c1O measured_parameter=IC50 readout_units=nM value_measured=2060
compound="Oc1cc(O)cc(-c2cc3cc4c(cc3o2)OC(c2cc(O)cc(O)c2)C(c2ccc(O)cc2O)O4)c1 (centres unmarked)" measured_parameter=IC50 readout_units=nM value_measured=1690
compound=Oc1cc(O)cc(-c2cc3ccc(O)cc3o2)c1 measured_parameter=IC50 readout_units=nM value_measured=27100
